PROTOCOL_TEXT: binders of probe aHhip on microarray, primary screen, stem cell growth factor project, biochemical, small-molecule microarray, fluorescence 635/667 (AID 1087);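 further: score merges spot fluorescence at 667nm with spot signal to noise ratio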
RUN_PARAMETERS: higher = more signal
I'd be grateful if you could share measured composite z-score for these entries.
One number for each entry.

Please review the entries below; each comes with its answer.
COc1ccc(O[C@H]2C=C[C@@H](c3ccccc3)O[C@@H]2CO)cc1: 0.0458
CCOC(=O)CCN1C(=O)[C@H]2[C@H]3[C@H](O)[C@H](O)CC(=NO[C@@H]4O[C@H](CO)[C@@H](O)[C@H](O)[C@H]4O)[C@H]3CC[C@H]2C1=O: -0.195
O=C1[C@H]2[C@H]3[C@H](O)[C@H](O)CC(=NO[C@@H]4O[C@H](CO)[C@@H](O)[C@H](O)[C@H]4O)[C@@H]3CC[C@H]2C(=O)N1C[C@@H]1CCCO1: 0.0505
CC(CCC(=O)OC[C@H]1O[C@H](C#Cc2ccccc2)C=C[C@@H]1Oc1ccc(C)cc1)=NOC(C)CN1CCCc2nc(C)c(C)cc21 (some centres not stated): -0.0319
CCOC(=O)[C@H](Cc1ccccc1)NC(=O)CCC1CC(OC(=O)NCc2ccc3c(c2)OCO3)CC2(CCCC(COC(=O)NCCCN3CCCC3=O)O2)O1 (some centres not stated): -0.248

Give one value of composite z-score per listed compound.
1. CC(CCN1CCc2nc(-c3ccccc3)c(-c3ccccc3)cc2C1)=NO[C@H](C)c1cn([C@H](CO)Cc2ccccc2)nn1
2. COc1cccc([C@H]2Oc3ccc(OC)cc3C(=NO[C@@H](C)c3cc(-c4c(C)cc(C)cc4C)no3)[C@@H]2O)c1

Response:
[-0.13, -0.45]
